Exercise: state measured log10(LC retention time) for each of the compounds provided.
# experimental-details: RP, Agilent ZORBAX Eclipse Plus C18, 50 × 4.6 mm, 1.8 µm, 0.5 mL/min, estimated dead time 1.1 min; A: water + 0.1% formic acid; B: acetonitrile + 0.1% formic acid; gradient (min/%B) 0/10 3/10 25/100 28/100
# assay-context: stereoisomer not certain
Plainly stated, the numbers are log10 of LC retention time given in min.

Input: Quick one: log10(LC retention time) of O=c1oc2ccccc2c(O)c1C1CC(c2ccc(-c3ccccc3)cc2)Cc2ccccc21 (stereo not drawn) ?
Output: 1.34

Input: Look at this compound and give its reported log10(LC retention time). CC(C)c1cc(Oc2ccccc2)cc(C(C)C)c1NC(=S)NC(C)(C)C
Output: 1.35

Input: Please report the recorded log10(LC retention time) for CCC1OC(=O)C(C)C(OC2CC(C)(OC)C(O)C(C)O2)C(C)C(OC2OC(C)CC(N(C)C)C2O)C(C)(O)CC(C)C(=NOCOCCOC)C(C)C(O)C1(C)O (stereo not drawn) .
Output: 1.05

Input: Would you kindly share the measured log10(LC retention time) for COP(=S)(OC)SCn1nnc2ccccc2c1=O ?
Output: 1.19

Input: If you can, please state the reported log10(LC retention time) value of COc1ccc(-c2ccccc2)cc1NNC(=O)OC(C)C .
Output: 1.22

Input: Record request: log10(LC retention time) value, item COCC(=O)N(c1c(C)cccc1C)C(C)C(=O)OC (stereo not drawn)
Output: 1.11

Input: Which measured log10(LC retention time) value corresponds to CSc1nc(NC(C)C)nc(NC(C)C)n1 ?
Output: 1.08

Input: log10(LC retention time) lookup needed for CCNc1nc(NC(C)C)nc(SC)n1 , thanks.
Output: 1.02

Input: # log10(LC retention time) lookup, item Cc1ncc([N+](=O)[O-])n1CCO
Output: 0.44

Input: What does the data say about its log10(LC retention time)? Entry: COC(=O)C1C(OC(=O)c2ccccc2)CC2CCC1N2C (stereo not drawn)
Output: 0.86

Input: What log10(LC retention time) value was documented for this compound, CNC(=O)Oc1ccc(N(C)C)c(C)c1 ?
Output: 0.27

Input: Suppose we examine the compound CNCC(O)c1cccc(O)c1 (stereo not drawn) ; what log10(LC retention time) value has been reported?
Output: 0.13

Input: Which log10(LC retention time) value belongs to CCCCCCCCCCCCCCCC[N+](C)(C)Cc1ccccc1 ?
Output: 1.31

Input: Form field: reported log10(LC retention time) of CNC(=O)Oc1cccc2c1OC(C)(C)C2
Output: 1.08

Input: Looking for the measured log10(LC retention time) of Cc1nnc(NS(=O)(=O)c2ccc(N)cc2)s1 , can you help?
Output: 0.85

Input: Using the record for CN(C)C(=O)Nc1cccc(OC(=O)NC(C)(C)C)c1 , report its log10(LC retention time).
Output: 1.06

Input: I would be grateful if you could share the reported log10(LC retention time) for CC(C)Cc1ccc(C(C)C(=O)O)cc1 (stereo not drawn) .
Output: 1.22

Input: // query log10(LC retention time) value for entry CN(C)C1C(=O)C(C(N)=O)=C(O)C2(O)C(=O)C3=C(O)c4c(O)cccc4C(C)(O)C3C(O)C12 (stereo not drawn)
Output: 0.79

Input: Need log10(LC retention time), item CCOP(=S)(OCC)Oc1cc(C)nc(C(C)C)n1
Output: 1.27

Input: Given CC12CCC3c4ccc(O)cc4CCC3C1CCC2O (stereo not drawn) , state its recorded log10(LC retention time).
Output: 1.13

Input: Which log10(LC retention time) reading was recorded for the compound CC(C(=O)O)c1cccc(C(=O)c2ccccc2)c1 (stereo not drawn) ?
Output: 1.14

Input: If you can, please state the reported log10(LC retention time) value of COC(=O)NN=Cc1c[n+]([O-])c2ccccc2[n+]1[O-] .
Output: 0.80

Input: What does the record list as log10(LC retention time) for Cc1ccc(NS(=O)(=O)N(C)C)cc1 ?
Output: 1.11
